All values here come from ChEMBL document CHEMBL3259560.

- measurement notes: Kinetic solubility of the compound in water containing 5% DMSO at pH 6.8
- Format: physicochemical
- run parameters: read-out: Kinetic_solubility
Here the recorded solubility kinetic is given for each entry.
State the answer as a number, implicitly in µM.

Use the examples below as a reference point.
Ask: # return recorded solubility kinetic for entry COc1c(O)cc2oc3c([N+](=O)[O-])c(O)c(CCC(C)C)c(O)c3c(=O)c2c1CCC(C)C
Reply: 339

Ask: Write down solubility kinetic measured for item COc1c(N)cc2oc3ccc(CCC(C)C)c(O)c3c(=O)c2c1CCC(C)C
Reply: 138

Ask: Indicate the recorded solubility kinetic value for this compound: COc1c(OC(C)=O)cc2oc3cc(O)c(CC=C(C)C)c(O)c3c(=O)c2c1CC=C(C)C
Reply: 148

Ask: Answer with the recorded solubility kinetic for the compound listed here: COc1c(O)cc2oc3cc(O)c(CC=C(C)C)c(O)c3c(=O)c2c1CC=C(C)C
Reply: 20

Ask: Consider the compound COc1c(O)cc2oc3c(Cl)c(O)c(CCC(C)C)c(O)c3c(=O)c2c1CCC(C)C and give its recorded solubility kinetic.
Reply: 381

Further cases:
Ask: Note solubility kinetic for the compound shown: CC(C)=CCc1c(O)cc2oc3cc(O)c(O)c(CC=C(C)C)c3c(=O)c2c1O
Reply: 94

Ask: # return recorded solubility kinetic for entry COc1c(OC(C)=O)cc2oc3cc(OC(C)=O)c(CC=C(C)C)c(O)c3c(=O)c2c1CC=C(C)C
Reply: 122

Ask: Please list solubility kinetic recorded for the compound COc1c(O)cc2oc3cc(O)c(CC=C(C)C)c(OC)c3c(=O)c2c1CC=C(C)C
Reply: 104

Ask: Output measured solubility kinetic for this item: COc1c(O)cc2oc3cc(O)c(CCC(C)C)c(O)c3c(=O)c2c1CCC(C)C
Reply: 78

Ask: Answer with the recorded solubility kinetic of C=CCOc1cc2oc3cc(O)c(CC=C(C)C)c(O)c3c(=O)c2c(CC=C(C)C)c1OC only.
Reply: 149

* * *

- Tested on: ASPC1
- measurement notes: Cytotoxicity against human AsPC1 cells assessed as inhibition of cell proliferation after 48 hrs by XTT assay
- Format: functional, cell-based
- run parameters: ASPC1, 48 h, read-out: IC50
recorded endpoint: IC50 (µM)
Give the number; µM is assumed, so skip it.

Ask: Supply reported IC50 belonging to this molecule: COc1c(O)cc2oc3cc(O)c(CC=C(C)C)c(OC)c3c(=O)c2c1CC=C(C)C
Reply: 13.9

New cases:
Ask: Could you please provide reported IC50 for COc1c(O)cc2oc3c(Cl)c(O)c(CCC(C)C)c(O)c3c(=O)c2c1CCC(C)C ? Thanks!
Reply: 19.3

Ask: Give a short answer stating reported IC50 for COc1c(O)cc2oc3c([N+](=O)[O-])c(O)c(CCC(C)C)c(O)c3c(=O)c2c1CCC(C)C .
Reply: 31.8

Ask: Indicate the recorded IC50 value for this molecule: CC(C)=CCc1c(O)cc2oc3cc(O)c(O)c(CC=C(C)C)c3c(=O)c2c1O
Reply: 5.92

Ask: Find the measured IC50 of COc1c(N)cc2oc3ccc(CCC(C)C)c(O)c3c(=O)c2c1CCC(C)C and report it.
Reply: 31.3

Ask: Identify the reported IC50 for the following entry. COc1c(O)cc2oc3cc4c(c(O)c3c(=O)c2c1CC=C(C)C)C=CC(C)(C)O4
Reply: 25.5

Ask: Please indicate IC50 recorded for COc1c(OC(C)=O)cc2oc3cc(O)c(CC=C(C)C)c(O)c3c(=O)c2c1CC=C(C)C
Reply: 13.9
